target-or-system: HIV-1HXB2 Env (Human immunodeficiency virus type 1 group M subtype B, UniProt P04578)
Construct: HL2/3 cells, which stably express high levels of Env, Gag, Tat, Rev, and Nef proteins of the integrated HIV-1 molecular clone HXB2/3gpt; host or cells: HL2/3 cells (effector), cocultured with TZM-bl target cells
Sequence (P04578 512-856): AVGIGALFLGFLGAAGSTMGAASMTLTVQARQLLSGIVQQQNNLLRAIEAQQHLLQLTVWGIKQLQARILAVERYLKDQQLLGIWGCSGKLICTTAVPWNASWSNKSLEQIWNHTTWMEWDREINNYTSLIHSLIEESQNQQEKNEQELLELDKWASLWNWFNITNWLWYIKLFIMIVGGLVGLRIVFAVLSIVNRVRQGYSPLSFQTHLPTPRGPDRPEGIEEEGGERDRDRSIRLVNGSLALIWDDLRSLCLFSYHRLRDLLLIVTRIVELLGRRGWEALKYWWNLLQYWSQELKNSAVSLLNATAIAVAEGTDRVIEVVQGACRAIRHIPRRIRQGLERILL
method-notes: HIV-1HXB2 Env-mediated cell-cell fusion (HL2/3 effector, TZM-bl target, luciferase reporter)
Assay type: cell-based
measurement-label: pIC50
Convention used: pIC50 is expressed as -log10 of the molar concentration.

So what's the measured pIC50 for this one? Ac-WEQKIEELLKKAEEQQKKNEEELKKLEK-NH2 [Lipopeptide P-52] 8.87

Reference source: paper PMC6375636
